// reported pIC50 for each item listed
Tgt: H3.3/H4 (human | X. laevis, UniProt P84243 1-136; P62799 1-103)
Method notes: FP
Reminder that pIC50 is minus the log10 of a molar concentration.

Study these solved cases before continuing.
[[record]]
binder = "UBN1(92–175) G131A (protein) NDEEKERHKVEALARKFEEKYGGKKRRKDRIQDLIDMGYAYDESDSFIDNSEAYDELVPASLTTKYGGFYINSGTLQFRQASES"
measurement_label = "pIC50"
result_number = 4.70

[[record]]
binder = "UBN1(92–175) Y130A (protein) NDEEKERHKVEALARKFEEKYGGKKRRKDRIQDLIDMGAGYDESDSFIDNSEAYDELVPASLTTKYGGFYINSGTLQFRQASES"
measurement_label = "pIC50"
result_number = 4.84

[[record]]
binder = "UBN1(92–175) A144I (protein) NDEEKERHKVEALARKFEEKYGGKKRRKDRIQDLIDMGYGYDESDSFIDNSEIYDELVPASLTTKYGGFYINSGTLQFRQASES"
measurement_label = "pIC50"
result_number = 4.79


Ask: Find the recorded pIC50 belonging to UBN1(92–175) E143A (protein) NDEEKERHKVEALARKFEEKYGGKKRRKDRIQDLIDMGYGYDESDSFIDNSAAYDELVPASLTTKYGGFYINSGTLQFRQASES and report it.
Result: 4.53

Ask: Find the recorded pIC50 belonging to UBN1(92–175) D124A (protein) NDEEKERHKVEALARKFEEKYGGKKRRKDRIQALIDMGYGYDESDSFIDNSEAYDELVPASLTTKYGGFYINSGTLQFRQASES and report it.
Result: 4.71
